# Tested on: COLO 205 colon
# TEST PROTOCOL: NCI tumour cell line growth inhibition, 48 h
Where a SMILES comes first, the peptide text is derived from it. [ ]: non-standard residue; d: D form. The star is where a group is joined. ξ: configuration not given here. ξPhe(4-NO2) = NC(Cc1ccc([N+](=O)[O-])cc1)C(=O)O; Boc = CC(C)(C)OC(=O)*; OBn = c1ccc(CO*)cc1
PROPERTY LABEL: TGI

Use these answered entries as a reference point.
[[record]]
molecule = "O=C(/C=C/c1c(O)ccc2ccccc12)c1cccc2ccccc12"
result = "> 100 µM"

[[record]]
molecule = "C[C@]12CC(c3ccccc3O1)C(C#N)C(=O)N2 (stereo partly specified)"
result = "> 100 µM"

[[record]]
molecule = "NC(=O)C12C3C4C1C1C2C3C41C(N)=O (stereo unspecified)"
result = "> 100 µM"

[[record]]
molecule = "CC(C)(C)OC(=O)NC(Cc1ccc([N+](=O)[O-])cc1)C(=O)NCC(=O)OCc1ccccc1 (stereo unspecified) (Boc-[ξPhe(4-NO2)]-Gly-OBn)"
result = "32.3 µM"

[[record]]
molecule = "COc1ccc(-n2c3c(c4cc(O)ccc42)C(=O)c2ccccc2C3=O)cc1"
result = "> 100 µM"


[Q] Quick one: TGI for O=[N+]([O-])/C(Cl)=C(\Nc1ccccc1)C(Cl)=C(Cl)Cl ?
[A] 39.5 µM

[Q] Check CC(=O)c1c(O)ccc2c1CC(CC=O)O2 (stereo unspecified) too.
[A] > 100 µM

----------
Notes on GI50 obtained with MDA-MB-435.

Use these answered entries as a reference point.
[[record]]
compound_smiles = "CCOC(=O)N1C/C(=C/c2ccc(OC)cc2)C(=O)/C(=C/c2ccc(OC)cc2)C1"
result = "1.19 µM"

[[record]]
compound_smiles = "O=C(NCCN1CCOCC1)Nc1ccc(-c2cc3c(Nc4ccc(Oc5cccc(C(F)(F)F)c5)c(Cl)c4)ncnc3s2)cc1"
result = "0.987 µM"

[[record]]
compound_smiles = "O=C(Nc1cccc(C(F)(F)F)c1)c1cccc(NC2=C(Cl)C(=O)N(Cc3ccccc3)C2=O)c1"
result = "8.69 µM"

[[record]]
compound_smiles = "C[C@@]1(c2ncncc2F)NC(=O)c2cc(-c3cn[nH]c3)ccc21"
result = "19.9 µM"

[[record]]
compound_smiles = "O=C(Nc1cccc2cccnc12)c1ccc(N2C(=O)[C@@H]3[C@H](C2=O)[C@@H]2C=C[C@H]3C2)cc1"
result = "32.1 µM"


[Q] Quick one: GI50 for O=C(NCCCNC(=O)OCc1ccc2c(Br)cc(Br)c(O)c2n1)OCc1ccc2c(Br)cc(Br)c(O)c2n1 ?
[A] > 100 µM

----------
# Test system: HOP-92 NSCLC
# TEST PROTOCOL: NCI tumour cell line growth inhibition, 48 h
Where a SMILES comes first, the peptide text is derived from it. [ ]: non-standard residue; d: D form. The star is where a group is joined. ξ: configuration not given here. ξPhe(4-NO2) = NC(Cc1ccc([N+](=O)[O-])cc1)C(=O)O; Boc = CC(C)(C)OC(=O)*; OBn = c1ccc(CO*)cc1
Classification field: enter Yes for TGI values not below 7 µM, No for values below it.

Example entries and their recorded answers appear below.
[[record]]
compound = "COc1ccc(CCNCc2cccc(OC)c2OC)cc1OC"
class_label = "Yes"

[[record]]
compound = "C[C@H]1C(OCCOC2O[C@@H]3O[C@@]4(C)CC[C@H]5[C@H](C)CCC([C@H]2C)[C@@]35O4)O[C@@H]2O[C@@]3(C)CC[C@H]4[C@H](C)CCC1[C@@]24O3 (stereo partly drawn)"
class_label = "Yes"

[[record]]
compound = "CCN(Cc1nc2cc(C(F)(F)F)ccc2nc1-c1ccccc1)c1ccc(OC)c(OC)c1"
class_label = "Yes"

[[record]]
compound = "CC(C)(C)OC(=O)NC(Cc1ccc([N+](=O)[O-])cc1)C(=O)NCC(=O)OCc1ccccc1 (stereo not drawn) (Boc-[ξPhe(4-NO2)]-Gly-OBn)"
class_label = "Yes"

[[record]]
compound = "COc1cc(/C=C2\\CC3C4CC=C5C[C@@H](N6CCCC6)CC[C@]5(C)C4CC[C@]3(C)[C@H]2OC(C)=O)ccc1OCCN1CCCCC1 (stereo partly drawn)"
class_label = "No"


[Q] Please indicate if the recorded TGI for COc1cc2nc(-c3ccc(-n4cncc4-c4ccc(N)cc4)cc3)sc2c(OC)c1OC meets or exceeds 7 µM.
[A] No

[Q] Check COc1cc(C2CC(c3ccc4c(c3)OCO4)=NN2C(C)=O)cc(OC)c1OC (stereo not drawn) too.
[A] Yes

[Q] Check COC(=O)c1c2c(c(C)[n+]([O-])c1C)C(=O)C(NCc1cccc(OC)c1)=CC2=O too.
[A] No
